Parameter koff: see the listing below.
# TEST SYSTEM: T1, biotinylated recombinant human Arginase 2 (human, UniProt P78540 23-354, biotin (biotinylated; site not stated))
# T1 chain: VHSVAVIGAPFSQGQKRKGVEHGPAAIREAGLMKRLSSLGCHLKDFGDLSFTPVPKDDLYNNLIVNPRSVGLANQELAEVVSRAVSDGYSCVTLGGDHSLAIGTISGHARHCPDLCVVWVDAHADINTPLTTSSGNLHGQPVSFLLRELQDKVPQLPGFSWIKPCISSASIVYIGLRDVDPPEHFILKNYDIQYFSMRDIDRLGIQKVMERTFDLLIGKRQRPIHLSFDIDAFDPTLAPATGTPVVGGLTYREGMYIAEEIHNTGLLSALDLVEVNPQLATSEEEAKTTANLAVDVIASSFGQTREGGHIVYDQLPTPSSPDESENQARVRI
# MEASUREMENT DESCRIPTION: BLI
MEASURED PARAMETER: koff (s⁻¹)

BINDER	UNIT NAME	OBSERVED VALUE
Fab C0021133 (Fab, V domains shown) VH: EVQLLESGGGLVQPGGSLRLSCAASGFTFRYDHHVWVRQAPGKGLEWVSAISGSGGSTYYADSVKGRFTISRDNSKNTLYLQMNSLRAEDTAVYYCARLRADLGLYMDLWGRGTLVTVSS VL: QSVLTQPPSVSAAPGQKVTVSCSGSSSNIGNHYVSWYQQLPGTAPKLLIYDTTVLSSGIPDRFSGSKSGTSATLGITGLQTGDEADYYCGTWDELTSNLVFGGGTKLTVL	s⁻¹	0.00045
Fab C0021177 (Fab, V domains shown) VH: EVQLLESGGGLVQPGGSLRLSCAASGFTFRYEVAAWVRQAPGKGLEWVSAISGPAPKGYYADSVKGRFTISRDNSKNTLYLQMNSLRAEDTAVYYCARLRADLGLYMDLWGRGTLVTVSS VL: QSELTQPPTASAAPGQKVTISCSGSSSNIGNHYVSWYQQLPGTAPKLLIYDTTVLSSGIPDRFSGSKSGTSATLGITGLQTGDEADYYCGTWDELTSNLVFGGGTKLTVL	s⁻¹	3.5e-05
